# Target of assay: Fructose-bisphosphate aldolase class II (Yersinia pestis)

[
  {
    "Smiles string": "O=C(COP(=O)(O)O)N(O)CCCCOP(=O)(O)O",
    "Target of assay": "Fructose-bisphosphate aldolase class II (Yersinia pestis)",
    "IC50 / nM": 36
  }
]

====

# Target of assay: Fructose-bisphosphate aldolase (Candida albicans (strain SC5314 / ATCC MYA-2876) (Yeast), UniProt Q9URB4)
# Sequence (Q9URB4 whole entry): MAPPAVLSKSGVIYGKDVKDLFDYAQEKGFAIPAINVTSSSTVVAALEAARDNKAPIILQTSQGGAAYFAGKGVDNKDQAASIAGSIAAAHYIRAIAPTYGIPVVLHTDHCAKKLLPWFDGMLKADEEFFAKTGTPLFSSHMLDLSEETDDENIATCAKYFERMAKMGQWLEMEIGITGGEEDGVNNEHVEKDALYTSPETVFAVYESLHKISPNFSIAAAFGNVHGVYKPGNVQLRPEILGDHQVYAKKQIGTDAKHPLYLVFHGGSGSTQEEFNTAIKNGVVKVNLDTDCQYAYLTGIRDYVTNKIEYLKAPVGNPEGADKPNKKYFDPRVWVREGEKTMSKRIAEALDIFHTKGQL
# Test protocol: Inhibition of Candida albicans zinc dependent class 2 Fba
pIC50: −log10 of the molar value.

[
  {
    "Smiles string": "O=C(COP(=O)(O)O)N(O)CCCCOP(=O)(O)O",
    "pIC50": 8.32
  }
]

====

# Target of assay: Fructose-bisphosphate aldolase class II (Yersinia pestis, UniProt A0A380PJR2)
# Sequence (A0A380PJR2 whole entry): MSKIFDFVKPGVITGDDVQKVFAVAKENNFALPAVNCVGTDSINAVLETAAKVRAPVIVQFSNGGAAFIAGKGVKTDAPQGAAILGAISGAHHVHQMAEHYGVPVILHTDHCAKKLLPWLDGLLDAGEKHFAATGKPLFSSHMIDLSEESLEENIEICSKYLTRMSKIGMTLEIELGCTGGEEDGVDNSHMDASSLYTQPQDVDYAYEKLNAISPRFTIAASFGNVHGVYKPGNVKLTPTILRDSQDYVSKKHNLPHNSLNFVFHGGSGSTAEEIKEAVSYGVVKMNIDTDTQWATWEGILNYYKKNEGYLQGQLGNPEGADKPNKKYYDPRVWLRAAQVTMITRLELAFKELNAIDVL
pKi: −log10 of the molar value.

[
  {
    "Smiles string": "O=C(COP(=O)(O)O)[C@@H](O)[C@H](O)[C@H](O)COP(=O)(O)O",
    "pKi": 4.26
  }
]

====

# Target of assay: Fructose-bisphosphate aldolase (Mycobacterium tuberculosis, UniProt P9WQA3)
# Sequence (P9WQA3 whole entry): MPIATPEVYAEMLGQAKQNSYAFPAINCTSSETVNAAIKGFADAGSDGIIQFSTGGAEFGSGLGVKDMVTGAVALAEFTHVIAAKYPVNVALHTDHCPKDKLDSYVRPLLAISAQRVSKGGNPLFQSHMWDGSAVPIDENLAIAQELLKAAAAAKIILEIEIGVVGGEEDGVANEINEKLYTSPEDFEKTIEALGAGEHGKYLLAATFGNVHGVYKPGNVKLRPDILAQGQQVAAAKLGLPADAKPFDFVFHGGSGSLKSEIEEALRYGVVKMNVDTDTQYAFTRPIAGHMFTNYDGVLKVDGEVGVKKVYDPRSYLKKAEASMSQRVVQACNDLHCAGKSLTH
pKi: −log10 of the molar value.
Readout type: pKi

[
  {
    "Smiles string": "O=C(COP(=O)(O)O)[C@@H](O)[C@H](O)[C@H](O)COP(=O)(O)O",
    "Readout type": "pKi",
    "Assay result": 4.68
  }
]

====

# Target of assay: Fructose-bisphosphate aldolase (Mycobacterium tuberculosis, UniProt P9WQA3)

[
  {
    "Smiles string": "O=C(COP(=O)(O)O)N(O)CCCCOP(=O)(O)O",
    "IC50, nM": 3.2
  }
]
